Just for reference, patent US4764358A is where these values come from.

experiment: in vivo; set-up: species or system female Fischer rats; conditions: rat, iv, Liver, distribution of radioactivity
measured_parameter: tissue uptake at 0.5 h
Express the reported value numerically, then name its unit.

// tissue uptake at 0.5 h value for `CC(C)(CCCCCCCCCCCCc1ccc(I)cc1)CC(=O)O` : 7.3 %ID/g

###

assay: in vivo; set-up: species or system female Fischer rats; conditions: rat, iv, Blood, distribution of radioactivity
measured_parameter: tissue uptake at 1 h (%ID/g)
Quick reminder: number only, in %ID/g, skip the unit.

Please fill in: tissue uptake at 1 h reported for `CC(C)(CCCCCCCCCCCCc1ccc(I)cc1)CC(=O)O` = 0.36
